Tested on: mouse p16Ink4a+/- lung fibroblasts (INKBRITE, bleomycin-injured)
assay_comment: percentage of GFP+ (p16Ink4a+) fibroblasts among all cells in well; higher = less depletion of p16Ink4a+ cells, active = 20 or less
applied_conditions: 1 µM; 3 days
Hit rate of the full screen: of about 1,800 compounds, about 50 (3%) showed activity. The full list was thinned out, with actives kept by preference.

>  <compound>
CCC1(C)CC(=O)NC(=O)C1 [Bemegride]

>  <percentage of GFP+>
48.1% (inactive)

$$$$
>  <compound>
O=[N+]([O-])c1ncc[nH]1

>  <percentage of GFP+>
43.5% (inactive)

$$$$
>  <compound>
Cc1cc(C(=O)CN2CCCC2)c(C)n1-c1ccc(F)cc1

>  <percentage of GFP+>
51.3% (inactive)

$$$$
>  <compound>
CN1c2ccccc2C(NCCCCCCC(=O)O)c2ccc(Cl)cc2S1(=O)=O (stereo unspecified)

>  <percentage of GFP+>
29.5% (inactive)

$$$$
>  <compound>
Cc1ccccc1-n1c(Cn2ncc3c(N)ncnc32)nc2cccc(C)c2c1=O

>  <percentage of GFP+>
38.7% (inactive)

$$$$
>  <compound>
C=CC[C@]1(O)CC[C@H]2[C@@H]3CCC4=CC(=O)CCC4=C3C=C[C@@]21C

>  <percentage of GFP+>
48.5% (inactive)

$$$$
